assayed-target: GST-Mcl-1
Sequence (Q07820 whole entry): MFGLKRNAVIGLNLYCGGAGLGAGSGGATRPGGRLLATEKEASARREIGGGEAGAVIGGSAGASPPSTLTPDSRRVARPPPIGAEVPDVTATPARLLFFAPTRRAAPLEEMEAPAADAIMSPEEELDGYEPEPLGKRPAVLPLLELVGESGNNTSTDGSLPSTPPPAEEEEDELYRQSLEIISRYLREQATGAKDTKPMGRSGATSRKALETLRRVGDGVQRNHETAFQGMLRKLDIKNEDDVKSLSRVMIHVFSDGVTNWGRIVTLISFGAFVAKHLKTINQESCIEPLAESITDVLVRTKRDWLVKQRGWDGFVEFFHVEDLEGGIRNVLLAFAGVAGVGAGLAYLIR
protocol: ELISA (format not described; target taken to be Mcl-1)
pIC50: −log10 of the molar value.
reported-property: pIC50

A: AAXLRRIGDXVNLRQKLLN (D-cysteine at position 3; D-Cys 3 and L-Cys 10 cross-linked by Bpy; N-terminal acetyl; C-terminal amide) [Cross-linked Noxa peptide 6b (Bpy, D-Cys 77 / L-Cys 84)]
B: AAXLRRIGDXVNLRQKLLN (Cys 3 and Cys 10 of the peptide (NoxaB 77 and 84) cross-linked by Bpy; N-terminal acetyl; C-terminal amide) [Cross-linked Noxa peptide 5b (Bpy, L,L-cysteines at 77/84)]
C: AAXLRRIGDXVNLRQKLLN (D-cysteine at position 3; D-Cys 3 and L-Cys 10 cross-linked by Bph; N-terminal acetyl; C-terminal amide) [Cross-linked Noxa peptide 6a (Bph, D-Cys 77 / L-Cys 84)]
D: AAXLRRIGDXVNLRQKLLN (Cys 3 and Cys 10 of the peptide (NoxaB 77 and 84) cross-linked by Bph; N-terminal acetyl; C-terminal amide) [Cross-linked Noxa peptide 5a (Bph, L,L-cysteines at 77/84)]
Reorder the list above by recorded pIC50 in ascending order. Your task in answering is to list the labels in the requested order. C, A, D, B
